- Test system: THP-1
- assay: Antiproliferative activity against human THP-1 cells assessed as inhibition of cell growth measured after 48 hrs by SRB assay
- Type: functional, cell-based
- appliedConditions: THP-1, 48 h
endpointName: IC50 (µM)

compound="COc1ccc(C(c2ccccc2OCCN2CCCC2)c2cccc3ccccc23)c(OC)c1OC (stereo not given)" boundoperator== reported=12.6
compound="CCOC(=O)C(C)C(O)(c1ccc(OC)c(OC)c1OC)c1cccc2ccccc12 (stereo not given)" boundoperator=> reported=20
compound="COc1ccc(C(O)(Cc2ccc(F)cc2)c2cccc3ccccc23)c(OC)c1OC (stereo not given)" boundoperator== reported=5.86
compound="COc1cc([C@@H]2c3cc4c(cc3[C@H](O)[C@H]3COC(=O)[C@H]23)OCO4)cc(OC)c1OC [PODOFILOX]" boundoperator== reported=19.6
compound="COc1ccc(C(O)(Cc2ccc(C)cc2)c2cccc3ccccc23)c(OC)c1OC (stereo not given)" boundoperator=> reported=20
